Listed here are molecules together with their documented melting point.

These solved cases illustrate the format of a correct answer.
# Molecule, melting point
rows = [
    ("CC(C)(C)c1ccc(NS(C)(=O)=O)c(-c2ccc[nH]c2=O)c1 [Compound I-6]", "219.3 to 233.8 °C"),
    ("COc1cc(CNS(C)(=O)=O)c(-c2ccc(C)[nH]c2=O)cc1C(C)(C)C [Compound I-37]", "120 to 125 °C"),
    ("COc1cc(CN2C(=O)CC[C@H]2CO)c(-c2ccc[nH]c2=O)cc1C(C)(C)C [Compound I-72]", "146 to 148 °C"),
    ("COc1cc(C(=O)N(C)C)c(-c2ccc[nH]c2=O)cc1C(C)(C)C [Compound I-41]", "208 to 210 °C"),
]

q: Annotate the molecule COc1cc(CN(C)C(=O)c2cccc(NS(C)(=O)=O)c2)c(-c2ccc[nH]c2=O)cc1C(C)(C)C [Compound I-65] with its measured melting point.
a: 170 to 172 °C

q: Annotate the molecule COc1cc(C(=O)N2CCOCC2)c(-c2ccc[nH]c2=O)cc1C(C)(C)C [Compound I-40] with its measured melting point.
a: 208 to 210 °C

q: Annotate the molecule COc1cc(CNC(=O)C2CCCC(NS(C)(=O)=O)C2)c(-c2ccc[nH]c2=O)cc1C(C)(C)C (centres unmarked) [Compound I-82] with its measured melting point.
a: 162 to 164 °C

q: Annotate the molecule COc1cc(C(=O)N(C)Cc2ccc(F)cc2)c(-c2ccc[nH]c2=O)cc1C(C)(C)C [Compound I-77] with its measured melting point.
a: 218 to 220 °C
